Notes on IC50 obtained with Histone acetyltransferase KAT6A [507-778] (Human, UniProt Q92794).
Sequence (Q92794 whole entry): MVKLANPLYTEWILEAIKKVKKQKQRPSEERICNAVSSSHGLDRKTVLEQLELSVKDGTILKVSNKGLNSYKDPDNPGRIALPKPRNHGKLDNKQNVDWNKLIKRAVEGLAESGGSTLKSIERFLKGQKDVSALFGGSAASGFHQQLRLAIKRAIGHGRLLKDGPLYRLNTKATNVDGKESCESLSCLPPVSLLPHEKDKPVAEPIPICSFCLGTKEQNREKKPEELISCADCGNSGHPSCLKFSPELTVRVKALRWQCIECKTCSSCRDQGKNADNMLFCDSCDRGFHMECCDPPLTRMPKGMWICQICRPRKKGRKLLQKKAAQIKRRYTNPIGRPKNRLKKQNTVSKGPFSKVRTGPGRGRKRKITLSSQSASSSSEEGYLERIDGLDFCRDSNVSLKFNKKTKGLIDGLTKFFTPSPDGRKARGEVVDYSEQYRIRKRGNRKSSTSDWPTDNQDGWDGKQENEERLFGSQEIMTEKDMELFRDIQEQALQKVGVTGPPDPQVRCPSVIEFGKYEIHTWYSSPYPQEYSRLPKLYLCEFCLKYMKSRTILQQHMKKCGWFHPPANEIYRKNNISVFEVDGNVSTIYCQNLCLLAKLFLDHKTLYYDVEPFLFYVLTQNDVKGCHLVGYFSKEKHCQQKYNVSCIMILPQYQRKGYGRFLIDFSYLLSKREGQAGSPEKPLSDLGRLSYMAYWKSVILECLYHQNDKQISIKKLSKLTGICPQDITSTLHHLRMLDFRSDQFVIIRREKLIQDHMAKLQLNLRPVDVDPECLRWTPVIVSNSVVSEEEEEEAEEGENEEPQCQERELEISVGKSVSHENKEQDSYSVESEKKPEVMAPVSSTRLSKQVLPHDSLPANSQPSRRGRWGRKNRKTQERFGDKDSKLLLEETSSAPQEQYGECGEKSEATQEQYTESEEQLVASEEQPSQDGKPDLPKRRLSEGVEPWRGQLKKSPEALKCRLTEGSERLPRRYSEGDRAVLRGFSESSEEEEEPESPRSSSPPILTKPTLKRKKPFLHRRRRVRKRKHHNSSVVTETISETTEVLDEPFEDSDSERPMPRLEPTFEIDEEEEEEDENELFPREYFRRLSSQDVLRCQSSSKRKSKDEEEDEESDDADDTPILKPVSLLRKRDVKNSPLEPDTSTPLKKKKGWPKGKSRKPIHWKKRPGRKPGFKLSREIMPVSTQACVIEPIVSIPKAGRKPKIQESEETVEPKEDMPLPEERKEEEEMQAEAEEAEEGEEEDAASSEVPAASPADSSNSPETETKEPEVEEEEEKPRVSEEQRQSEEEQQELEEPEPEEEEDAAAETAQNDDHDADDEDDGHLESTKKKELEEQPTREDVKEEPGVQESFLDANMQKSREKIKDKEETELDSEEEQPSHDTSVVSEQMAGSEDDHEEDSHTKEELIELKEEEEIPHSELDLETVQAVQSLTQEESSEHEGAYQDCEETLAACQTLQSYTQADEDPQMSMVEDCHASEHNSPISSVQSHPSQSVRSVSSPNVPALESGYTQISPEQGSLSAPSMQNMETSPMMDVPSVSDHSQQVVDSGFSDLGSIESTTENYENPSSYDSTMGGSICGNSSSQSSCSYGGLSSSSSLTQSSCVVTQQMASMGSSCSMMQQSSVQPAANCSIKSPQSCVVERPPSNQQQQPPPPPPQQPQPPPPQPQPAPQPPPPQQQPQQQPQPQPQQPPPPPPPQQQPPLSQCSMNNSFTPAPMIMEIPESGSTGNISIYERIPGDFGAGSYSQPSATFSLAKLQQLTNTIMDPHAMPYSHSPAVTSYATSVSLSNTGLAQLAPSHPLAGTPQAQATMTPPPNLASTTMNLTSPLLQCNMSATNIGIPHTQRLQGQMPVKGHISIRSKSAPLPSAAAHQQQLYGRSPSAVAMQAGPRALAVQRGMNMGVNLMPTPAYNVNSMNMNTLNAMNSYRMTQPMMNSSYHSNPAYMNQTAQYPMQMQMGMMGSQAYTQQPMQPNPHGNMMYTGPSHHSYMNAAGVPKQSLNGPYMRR
property-measured: IC50 (nM)

CCOc1ccccc1S(=O)(=O)NC(=O)c1cc2c(C(F)(F)F)cc(C3CC3)cc2o1 [WO2022081842, Example 51]: 26

a. CCOc1ccccc1S(=O)(=O)NC(=O)c1cc2c(OC(F)F)cc(C3CC3)cc2o1 [WO2022081842, Example 49]
b. CC(C)c1ccc2cc(C(=O)NS(=O)(=O)c3ccc(Cl)cc3Cl)oc2c1 [WO2022081842, Example 57]
(Q) Which gives the smaller IC50 number: a or b ? // return label of chosen record
(A) a
